Attribution: ChEMBL document CHEMBL4229335

- Tested on: HL-60
- ASSAY_PROTOCOL: Antiproliferative activity against human HL60 cells after 72 hrs by MTT assay
- Type: functional, cell-based
- DETAILS: HL-60, 72 h
Recorded IC50 for the following compounds
Report as a plain number; the unit µM is understood.

C=C1C(=O)[C@@]23C(=O)O[C@H]4CCC(C)(C)[C@H]5[C@H](OC(=O)CCC(=O)N[C@@H](Cc6ccc(N(CCCl)CCCl)cc6)C(=O)OC)OC[C@@]45[C@@H]2CC[C@@H]1[C@H]3OC(=O)CCC(=O)N[C@@H](Cc1ccc(N(CCCl)CCCl)cc1)C(=O)OC	17.6

Now take the following compound into account.
Measured IC50, C=C1C(=O)[C@@]23C(=O)O[C@H]4CCC(C)(C)[C@H]5[C@H](O)OC[C@@]45[C@@H]2CC[C@@H]1[C@H]3OC(=O)CCCc1ccc(N(CCCl)CCCl)cc1 : 6.35
